Target: recombinant human A2A receptors (Homo sapiens, UniProt P29274)
Sequence (P29274 whole entry): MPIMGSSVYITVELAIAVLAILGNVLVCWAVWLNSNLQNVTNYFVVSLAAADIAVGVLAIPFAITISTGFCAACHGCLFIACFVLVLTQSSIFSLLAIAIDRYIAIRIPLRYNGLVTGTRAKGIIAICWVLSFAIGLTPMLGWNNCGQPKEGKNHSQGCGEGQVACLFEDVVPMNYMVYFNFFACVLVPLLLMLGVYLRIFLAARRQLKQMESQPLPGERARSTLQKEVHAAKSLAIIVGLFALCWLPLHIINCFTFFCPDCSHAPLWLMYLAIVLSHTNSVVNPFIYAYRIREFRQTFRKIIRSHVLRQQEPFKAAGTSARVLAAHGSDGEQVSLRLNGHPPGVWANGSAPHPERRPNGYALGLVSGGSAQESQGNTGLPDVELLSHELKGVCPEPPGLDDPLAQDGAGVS
Assay: Radioligand competition binding to recombinant human A2A receptors in Sf9 cell membranes
Conditions: A2A ± SEM, Ki from competition binding, Sf9 cell membranes
pKi: −log10 of the molar value.
observation_type: pKi

1 = CCNC(=O)[C@H]1O[C@@H](n2cnc3c(N)nc(C#CCN4CCN(C(=O)OC(C)(C)C)CC4)nc32)C(O)C1O (stereo in doubt)
2 = CCNC(=O)[C@H]1O[C@@H](n2cnc3c(N)nc(C#CCN4CCC(C(=O)OCC)CC4)nc32)C(O)C1O (stereo in doubt)
3 = CCNC(=O)[C@H]1O[C@@H](n2cnc3c(N)nc(C#CCC4CCC(C(=O)O)CC4)nc32)C(O)C1O (stereo in doubt) [ATL-146a]
*Q* For the molecules shown above, give the order from largest pKi to smallest. List the labels according to the requested ordering.
*A* 1, 2, 3

The values you see were collected from patent US7737127B2.
